assaySystem: UniProtKB P11229
Sequence (P11229 whole entry): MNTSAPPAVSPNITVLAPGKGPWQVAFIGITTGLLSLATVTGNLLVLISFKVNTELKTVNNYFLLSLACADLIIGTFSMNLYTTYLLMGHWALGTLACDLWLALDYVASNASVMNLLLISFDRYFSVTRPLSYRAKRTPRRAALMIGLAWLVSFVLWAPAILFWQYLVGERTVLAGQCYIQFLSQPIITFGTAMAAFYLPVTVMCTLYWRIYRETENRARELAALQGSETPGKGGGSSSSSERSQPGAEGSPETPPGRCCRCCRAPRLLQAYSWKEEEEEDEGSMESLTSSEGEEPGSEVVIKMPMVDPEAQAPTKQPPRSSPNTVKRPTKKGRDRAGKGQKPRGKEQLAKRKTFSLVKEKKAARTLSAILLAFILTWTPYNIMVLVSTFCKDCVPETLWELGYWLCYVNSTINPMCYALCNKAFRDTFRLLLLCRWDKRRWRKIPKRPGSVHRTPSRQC
testProtocol: Binding affinity at the NMS liganded human muscarinic acetylcholine receptor M1 was estimated as log affinity (log1/M)
measure: Affinity
Answers are plain numbers.

[
  {
    "molecule": "O=C1C[C@@H]2OCC=C3C[N+]4(Cc5ccccc5)CC[C@]56c7ccccc7N1[C@H]5[C@H]2[C@H]3C[C@@H]64 (some centres not stated)",
    "measure": "Affinity",
    "reportedResult": 5.2
  },
  {
    "molecule": "COc1cc2c(cc1OC)[C@@]13CC[N+]4([O-])CC5=CCO[C@H]6CC(=O)N2[C@H]1[C@H]6[C@H]5C[C@@H]34 (some centres not stated)",
    "measure": "Affinity",
    "reportedResult": 3.6
  },
  {
    "molecule": "O=C1C[C@@H]2OCC=C3C[N+]4(Cc5ccc([N+](=O)[O-])cc5)CC[C@]56c7ccccc7N1[C@H]5[C@H]2[C@H]3C[C@@H]64 (some centres not stated)",
    "measure": "Affinity",
    "reportedResult": 5.3
  },
  {
    "molecule": "COc1cc2c(cc1OC)[C@@]13CC[N+]4(C)CC5=CCO[C@H]6CC(=O)N2[C@H]1[C@H]6[C@H]5C[C@@H]34 (some centres not stated)",
    "measure": "Affinity",
    "reportedResult": 4
  },
  {
    "molecule": "COc1cc2c(cc1OC)[C@@]13CCN4CC5=CCO[C@H]6CC(=O)N2[C@H]1[C@H]6[C@H]5C[C@H]43",
    "measure": "Affinity",
    "reportedResult": 4.5
  },
  {
    "molecule": "O=C1C[C@@H]2OCC=C3C[N+]4(Cc5cccc([N+](=O)[O-])c5)CC[C@]56c7ccccc7N1[C@H]5[C@H]2[C@H]3C[C@@H]64 (some centres not stated)",
    "measure": "Affinity",
    "reportedResult": 5.1
  }
]

Prompt: Please report the recorded Affinity for CC[N+]12CC[C@@]34c5ccccc5N5C(=O)C[C@@H]6OCC=C(C1)[C@H](C[C@@H]32)[C@@H]6[C@H]54 (some centres not stated) .
Completion: 4.6
